TARGET SYSTEM: T1, PCSK9-His (UniProt Q8NBP7 31-692)
T1 construct: also called antigen PCSK9-His; Proprotein Convertase Subtilisin/Kexin Type 9; not shown: His tag
T1 sequence (Q8NBP7 31-692 limits assumed): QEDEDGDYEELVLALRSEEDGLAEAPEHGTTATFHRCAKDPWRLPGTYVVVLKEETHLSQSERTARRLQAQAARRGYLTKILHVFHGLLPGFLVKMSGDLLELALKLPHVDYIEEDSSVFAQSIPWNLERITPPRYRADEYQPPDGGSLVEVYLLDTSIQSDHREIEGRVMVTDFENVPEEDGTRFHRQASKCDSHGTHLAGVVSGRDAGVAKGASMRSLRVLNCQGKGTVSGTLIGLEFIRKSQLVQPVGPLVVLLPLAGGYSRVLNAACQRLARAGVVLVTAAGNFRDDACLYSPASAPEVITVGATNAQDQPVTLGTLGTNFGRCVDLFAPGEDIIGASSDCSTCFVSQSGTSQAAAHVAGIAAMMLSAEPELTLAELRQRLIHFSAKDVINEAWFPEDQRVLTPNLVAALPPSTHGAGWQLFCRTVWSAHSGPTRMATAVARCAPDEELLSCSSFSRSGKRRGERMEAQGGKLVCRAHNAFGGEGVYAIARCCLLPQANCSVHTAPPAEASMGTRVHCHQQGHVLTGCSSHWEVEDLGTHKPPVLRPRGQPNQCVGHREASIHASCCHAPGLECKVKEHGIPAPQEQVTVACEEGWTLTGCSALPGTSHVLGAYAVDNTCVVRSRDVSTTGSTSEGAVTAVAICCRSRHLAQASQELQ
EXPERIMENT NOTES: competition ELISA, LDLR-Fc coated, PCSK9-His 2 ug/ml, antibody titrated, anti-His-HRP
Give IC50 for every item shown.
The figure you give is taken to be in µg/mL; do not add the unit.

Recorded IC50 (binder DFSK9-20 complete antibody (antibody, V domains shown) VH: QVQLVQSGAEVKKPGASVKVSCKASGYSLTSYGISWVRQAPGQGLEWMGWVSFYNGNSNYAQKLQGRGTMTTDPSTSTAYMELRSLRSDDTAVYYCARGFGMDRWGQGTTVTVSS VL: DIQMTQSPSSLSASVGDRVTITCRASQNINNWLNWYQQKPGKAPKLLIYGASTRPTGVPSRFSGSGSGTDFTLTISSLQPEDFATYYCQQWDDTPNTFGQGTKVEIK ): 0.216

// IC50 lookup, binder = DFSK9-15 complete antibody (antibody, V domains shown) VH: QVQLVQSGAEVKKPGASVKVSCKASGYTVTSYGISWVRQAPGQGLEWMGWVSFYNGQTNYAQKLQGRGTMTTDPSTSTAYMELRSLRSDDTAVYYCARGYSLDVWGQGTTVTVSS VL: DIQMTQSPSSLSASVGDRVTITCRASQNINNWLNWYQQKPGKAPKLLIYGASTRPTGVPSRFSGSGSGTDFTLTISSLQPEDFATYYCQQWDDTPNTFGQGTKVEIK , result: 0.114

The binder DFSK9-16 complete antibody (antibody, V domains shown) VH: QVQLVQSGAEVKKPGASVKVSCKASGYTVTSYGISWVRQAPGQGLEWMGWVSFYQGNTNYAQKLQGRGTMTTDPSTSTAYMELRSLRSDDTAVYYCARGFGMDRWGQGTTVTVSS VL: DIQMTQSPSSLSASVGDRVTITCRASQNINSWLNWYQQKPGKAPKLLIYGASSRQSGVPSRFSGSGSGTDFTLTISSLQPEDFATYYCQQWFDVPTTFGQGTKVEIK showed IC50 equal to 0.282

Ref: patent US20210277146A1
